The compounds below each have a reported pIC50 tested on Platelet-activating factor receptor (Homo sapiens); the values come from various publications.
Answers are plain numbers, as −log10 of the molar value.

{"columns": ["compound.structure.string", "pIC50"],
 "data": [
  ["COc1cc(C(=O)N(C(C)C)C2CCCCC2)ccc1Cn1cccc2ncnc1-2", 6.19],
  ["O=S(=O)(N[C@@H]1C[C@H](n2cnnc2)CC(F)(F)C1)c1cc(-c2ccc(F)cc2)cc(C(F)(F)F)c1", 7.44],
  ["CCCCCCCCNC(=O)c1ccc(Cn2ccc3ncnc-3c2)cc1", 4.96]
]}

Report pIC50 for every entry below.
1. O=S(=O)(N[C@H]1CCC[C@@H](n2cnnc2)C1)c1cc(-c2cc(Cl)cn3ccnc23)cc(C(F)(F)F)c1
2. O=S(=O)(N[C@H]1CCC[C@@H](n2cnnc2)C1)c1cc(-c2cc3ccccc3s2)cc(C(F)(F)F)c1
3. O=S(=O)(N[C@H]1CCC[C@@H](n2cnnc2C2CC2)C1)c1ccc(-c2noc(C3CC3)n2)cc1OC(F)(F)F
4. O=S(=O)(N[C@H]1CCC[C@@H](n2cnnc2)C1)c1cc(F)cc(-c2ccccc2)c1
5. CCc1cc(-c2ncc(COC)s2)ccc1S(=O)(=O)N[C@H]1CCC[C@@H](n2cnnc2)C1

(A)
1: 8.57; 2: 8.92; 3: 8.37; 4: 8.00; 5: 7.39

---

The compounds below each have a reported IC50 tested on Platelet-activating factor receptor (Homo sapiens); the values come from various publications.
Numbers only, in nM.

Reference set, count: 2
{"columns": ["compound", "target.under.test", "unit.abbrev", "IC50"],
 "data": [
  ["Cc1nncn1[C@@H]1CCC[C@H](NS(=O)(=O)c2ccc(-c3ccc(OC(F)(F)F)cc3)cc2OC(F)(F)F)C1", "Platelet-activating factor receptor (Homo sapiens)", "nM", 6.2],
  ["O=S(=O)(N[C@H]1CCC[C@@H](n2cnnc2)C1)c1cc(-c2ccncc2)cc(C(F)(F)F)c1", "Platelet-activating factor receptor (Homo sapiens)", "nM", 36]
]}

Report IC50 for every entry below.
1. COc1cc(C(=O)N(C2CCCC2)C2CCCC2)ccc1Cn1cnc2ncccc21
2. CCc1cc(-c2ccc(OCC(F)(F)F)nn2)cc(S(=O)(=O)N[C@H]2CCC[C@@H](n3cnnc3)C2)c1
3. O=S(=O)(N[C@H]1CCC[C@@H](n2cnnc2)C1)c1ccc(-c2noc(C(F)(F)F)n2)cc1C1CC1
4. COc1cc(Cn2ccc3ncnc-3c2)ccc1C(=O)N(C1CCCC1)C1CC(C)CC(C)C1 (stereo not shown)
5. O=S(=O)(N[C@H]1CCC[C@@H](n2cnnc2)C1)c1cc(-c2ccc3nc(C(F)(F)F)nn3n2)cc(C(F)(F)F)c1
6. CCCCCCCCCCCCNC(=O)c1ccc(Cn2ccc3ncnc-3c2)cc1

(A)
1: 78; 2: 5.7; 3: 16; 4: 1; 5: 18; 6: 11900

Report IC50 for every entry below.
1. O=C(NC1CCCCC1)c1ccc(Cn2ccc3ncnc-3c2)cc1
2. Cc1nncn1[C@@H]1CCC[C@H](NS(=O)(=O)c2cc(-c3ccc(F)cc3)cc(C(F)(F)F)c2)C1

(A)
1. 19300
2. 4.8

---

The compounds below each have a reported pIC50 tested on Platelet-activating factor receptor (Homo sapiens, UniProt P25105); the values come from various publications.
Give bare numbers, as −log10 of the molar value.

Reference set, count: 5
{"columns": ["compound.structure.string", "pIC50"],
 "data": [
  ["O=S(=O)(N[C@H]1CCC[C@@H](n2cnnc2)C1)c1cc(-c2ccccc2OC(F)(F)F)cc(C(F)(F)F)c1", 8.31],
  ["CCc1cc(-c2ccncc2)ccc1S(=O)(=O)N[C@H]1CCC[C@@H](n2cnnc2)C1", 7.02],
  ["CC(C)(C)CC(C)(C)NC(=O)c1ccc(Cn2ccc3ncnc-3c2)cc1", 4.65],
  ["COc1cc(C(=O)N(C(C)C)C2CCCCC2)ccc1Cn1c(C)nc2ncccc21", 8.05],
  ["O=S(=O)(N[C@H]1CCC[C@@H](n2cnnc2)C1)c1c(C2CC2)cc(-c2noc(C3CC(F)(F)C3)n2)cc1C1CC1", 8.54]
]}

Report pIC50 for every entry below.
1. Cc1nnc(C)n1[C@@H]1CCC[C@H](NS(=O)(=O)c2c(C(C)C)cc(C(C)C)cc2C(C)C)C1
2. CCc1cc([N+](=O)[O-])ccc1S(=O)(=O)N[C@H]1CCC[C@@H](n2cnnc2)C1
3. COc1cc(C(=O)N(C(C)C)C2CCCCC2)ccc1Cn1c(CO)nc2cccnc21
4. CCc1cc(-c2cccnc2OC)ccc1S(=O)(=O)N[C@H]1CCC[C@@H](n2cnnc2)C1
5. Cc1nncn1[C@@H]1CCC[C@H](NS(=O)(=O)c2ccc(-c3ccc(OCC(F)(F)F)nc3)cc2OC(F)(F)F)C1

(A)
1: 8.01; 2: 6.42; 3: 7.96; 4: 7.57; 5: 8.70

Report pIC50 for every entry below.
1. O=S(=O)(N[C@H]1CCC[C@@H](n2cnnc2C2CC2)C1)c1ccc(-c2noc(C3CC(F)(F)C3)n2)cc1OC(F)(F)F
2. CCCCOc1ccc(S(=O)(=O)N[C@H]2CCC[C@@H](n3cnnc3C3CC3)C2)cc1
3. O=S(=O)(N[C@H]1CCC[C@@H](n2cnnc2)C1)c1cc(-c2ccnc3ccnn23)cc(C(F)(F)F)c1

(A)
1: 8.20; 2: 8.39; 3: 8.23

Report pIC50 for every entry below.
1. CCc1cc(-c2ccc(OC(F)(F)F)c(F)c2)ccc1S(=O)(=O)N[C@H]1CCC[C@@H](n2cnnc2C)C1
2. CCc1cc(-c2ccc(OCC(F)(F)F)nc2)ccc1S(=O)(=O)N[C@H]1CCC[C@@H](n2cnnc2)C1
3. Cc1nncn1[C@@H]1CCC[C@H](NS(=O)(=O)c2ccc(-c3ccc(OCC(F)(F)F)nc3)c(F)c2)C1
4. Cc1nncn1[C@H]1C[C@@H](NS(=O)(=O)c2cc(-c3cccc4cccnc34)cc(C(F)(F)F)c2)CC(F)(F)C1
5. CN(C(=O)c1ccc(CCCn2ccc3ncnc-3c2)cc1)C1CCCCC1

(A)
1. 8.57
2. 9.15
3. 9.00
4. 9.40
5. 4.21

Report pIC50 for every entry below.
1. CCc1cc(-c2ccc(NC(C)=O)cc2)ccc1S(=O)(=O)N[C@H]1CCC[C@@H](n2cnnc2)C1
2. CCc1cc(-c2ccc(C)nc2)ccc1S(=O)(=O)N[C@H]1CCC[C@@H](n2cnnc2)C1
3. CCOC(=O)c1cn2cc(Cl)cc(-c3cc(C(F)(F)F)cc(S(=O)(=O)N[C@H]4CCC[C@@H](n5cnnc5)C4)c3)c2n1
4. CCc1cc(-c2ccccc2F)ccc1S(=O)(=O)N[C@H]1CCC[C@@H](n2cnnc2)C1
5. O=S(=O)(N[C@H]1CCC[C@@H](n2cnnc2C2CC2)C1)c1ccc(-c2noc(C3CCC3)n2)cc1OC(F)(F)F
6. CCc1cc(-n2cccn2)ccc1S(=O)(=O)N[C@H]1CCC[C@@H](n2cnnc2)C1

(A)
1: 7.24; 2: 6.92; 3: 9.30; 4: 7.66; 5: 8.60; 6: 7.17
